ASSAYED TARGET: lipoxygenase (Rattus norvegicus, UniProt P12527)
Construct: the peritoneal cavities were lavaged and the polymorphonuclear leukocytes were recovered; endogenous in cells
Sequence (P12527 whole entry): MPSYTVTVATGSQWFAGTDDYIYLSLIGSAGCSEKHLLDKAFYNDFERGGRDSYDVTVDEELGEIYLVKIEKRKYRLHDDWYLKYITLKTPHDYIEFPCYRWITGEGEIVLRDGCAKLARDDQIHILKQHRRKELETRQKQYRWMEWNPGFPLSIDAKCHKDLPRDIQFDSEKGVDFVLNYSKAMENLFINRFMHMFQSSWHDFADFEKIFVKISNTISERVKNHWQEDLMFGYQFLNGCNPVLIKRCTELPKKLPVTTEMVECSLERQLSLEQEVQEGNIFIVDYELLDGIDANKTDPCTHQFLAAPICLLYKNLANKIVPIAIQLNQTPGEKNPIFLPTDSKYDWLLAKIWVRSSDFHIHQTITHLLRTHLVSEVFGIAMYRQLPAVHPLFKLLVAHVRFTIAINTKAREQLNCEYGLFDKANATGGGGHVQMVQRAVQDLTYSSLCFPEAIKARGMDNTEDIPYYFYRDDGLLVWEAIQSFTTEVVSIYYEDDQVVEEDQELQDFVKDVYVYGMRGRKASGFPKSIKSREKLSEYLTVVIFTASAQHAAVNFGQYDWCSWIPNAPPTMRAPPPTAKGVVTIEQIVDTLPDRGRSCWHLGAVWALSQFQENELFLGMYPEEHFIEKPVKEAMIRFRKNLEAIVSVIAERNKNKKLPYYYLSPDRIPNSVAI
PROTOCOL SUMMARY: Test of lipoxygenase inhibitory action (production of leukotriene B4 in rat polymorphonuclear leukocytes)
RUN PARAMETERS: inhibiting the production of leukotriene B4, calcium ionophore A-23187, EIA, read-out: LTBI IC50
OBSERVABLE: pIC50
Please treat pIC50 as minus the base-10 logarithm of the molar concentration.

Reference set (8 entries):
{"COMPOUND": "ON(CCCC(c1ccccc1)c1cccnc1)C(=S)NC1CCCCC1 (stereo not drawn)", "ASSAY VALUE": 6.52}
{"COMPOUND": "O=C(NC1CCCCC1)N(O)Cc1cccc(OC(c2ccccc2)c2cccnc2)c1 (stereo not drawn)", "ASSAY VALUE": 6.70}
{"COMPOUND": "NC(=O)N(O)CCCCCCCCCC(c1ccccc1)c1cccnc1 (stereo not drawn)", "ASSAY VALUE": 8.00}
{"COMPOUND": "O=C(NC1CCCCC1)N(O)CCCCCCC(c1ccccc1)c1cccnc1 (stereo not drawn)", "ASSAY VALUE": 7.22}
{"COMPOUND": "CC(c1cccc(CC(c2ccccc2)c2cccnc2)c1)N(O)C(N)=O (stereo not drawn)", "ASSAY VALUE": 6.10}
{"COMPOUND": "NC(=O)N(O)CCCCC/C=C(\\c1ccccc1)c1cccnc1", "ASSAY VALUE": 6.40}
{"COMPOUND": "NC(=O)N(O)Cc1cccc(OC(c2ccccc2)c2cccnc2)c1 (stereo not drawn)", "ASSAY VALUE": 6.52}
{"COMPOUND": "CC(CCCCCC(c1ccccc1)c1cccnc1)N(O)C(N)=O (stereo not drawn)", "ASSAY VALUE": 7.00}

(Q) What value of measured pIC50 is listed for CC(CCCCCCCC(c1ccccc1)c1cccnc1)N(O)C(=S)NC1CCCCC1 (stereo not drawn) ?
(A) 7.00

(Q) What value of measured pIC50 is listed for CC(/C=C/CCCC(c1ccccc1)c1cccnc1)N(O)C(N)=O (stereo not drawn) ?
(A) 6.70

(Q) What value of measured pIC50 is listed for CCNC(=O)N(O)CCCCCC(c1ccccc1)c1cccnc1 (stereo not drawn) ?
(A) 6.70

(Q) What value of measured pIC50 is listed for NC(=O)N(O)C/C=C/CCCC(c1ccccc1)c1cccnc1 (stereo not drawn) ?
(A) 6.70
